Data origin, for the record: the supplement of paper PMC8728848

# target entity: GlcNAc(b1-4)GlcNAc(b1-4)GlcNAc(b1-4)GlcNAc(b1-4)GlcNAc
# assay procedure: glycan array binding signal (z-score within array); higher = stronger binding
# assay conditions: glycan notation: IUPAC condensed, linker removed
This excerpt belongs to a sample that is enriched for the strongest signals.
Task for the reader: assign each of the following binders its reported glycan array binding signal (z-score).
Give the figure only, with no unit attached.

# query: glycan array binding signal (z-score) of entry Gal 12 (Homo sapiens), Q96DT0 (protein) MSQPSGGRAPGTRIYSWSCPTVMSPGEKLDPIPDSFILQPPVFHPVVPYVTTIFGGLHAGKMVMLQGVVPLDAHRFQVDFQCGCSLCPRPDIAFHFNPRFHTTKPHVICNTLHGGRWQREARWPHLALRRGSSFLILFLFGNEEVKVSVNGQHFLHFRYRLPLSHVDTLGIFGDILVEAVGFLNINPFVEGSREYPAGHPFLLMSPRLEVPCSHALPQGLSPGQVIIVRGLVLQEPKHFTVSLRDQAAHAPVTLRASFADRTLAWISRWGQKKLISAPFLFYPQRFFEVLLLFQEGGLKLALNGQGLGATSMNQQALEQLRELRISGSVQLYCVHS
-0.139

Same for VLRB.aGPA.23-GCN4-biotin (Petromyzon marinus) (protein) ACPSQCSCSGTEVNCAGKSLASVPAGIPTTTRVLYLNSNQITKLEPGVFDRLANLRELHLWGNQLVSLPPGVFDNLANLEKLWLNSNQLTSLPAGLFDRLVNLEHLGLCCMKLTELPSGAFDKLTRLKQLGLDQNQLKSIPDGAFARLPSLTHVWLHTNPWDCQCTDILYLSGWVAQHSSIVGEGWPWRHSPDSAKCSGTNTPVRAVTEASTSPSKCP
-0.086

Same for DC-SIGN (Canis lupus), XP_853402 (protein) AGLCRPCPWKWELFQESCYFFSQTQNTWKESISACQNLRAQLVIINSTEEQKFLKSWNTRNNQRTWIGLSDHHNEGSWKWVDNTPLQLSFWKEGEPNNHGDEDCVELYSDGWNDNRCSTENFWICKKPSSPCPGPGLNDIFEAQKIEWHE
-0.267

Same for MVL (Microcystis viridis), Q9RHG4 (protein) MASYKVNIPAGPLWSNAEAQQVGPKIAAAHQGNFTGQWTTVVESAMSVVEVELQVENTGIHEFKTDVLAGPLWSNDEAQKLGPQIAASYGAEFTGQWRTIVEGVMSVIQIKYTF
0.051

Same for EUL D1A (Oryza sativa) (protein) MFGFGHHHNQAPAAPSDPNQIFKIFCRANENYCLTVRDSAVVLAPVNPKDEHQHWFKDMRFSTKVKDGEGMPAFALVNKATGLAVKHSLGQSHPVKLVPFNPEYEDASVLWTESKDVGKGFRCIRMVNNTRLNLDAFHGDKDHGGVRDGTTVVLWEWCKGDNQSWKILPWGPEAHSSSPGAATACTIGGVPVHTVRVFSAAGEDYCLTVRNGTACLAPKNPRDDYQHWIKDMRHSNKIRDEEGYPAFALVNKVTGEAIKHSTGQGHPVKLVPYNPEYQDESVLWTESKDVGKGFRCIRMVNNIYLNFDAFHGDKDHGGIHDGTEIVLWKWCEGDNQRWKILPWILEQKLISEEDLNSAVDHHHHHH
0.586
